Numbers sourced from PubChem BioAssay (EPA / NIEHS).

# System: Sodium/Iodide Symporter (NIS), SLC5A5 (gene 6528)
# procedure.details: CPHEA_Stoker_NIS_Inhibition_RAIU: CPHEA's Radioactive Iodide Uptake (RAIU) Assay for Sodium/Iodide Symporter (NIS) Inhibition, Stoker and Laws Labs (AID 2283841)
Inconclusive results are not listed. Active and inactive are the calls of the source. The calls were made as follows: active = hit-call score of the fitted dose curve at least 0.9, where 1 is the maximum; inconclusive = response in the unintended direction; inactive = score below 0.9.
Hi there, use one of these labels in your reply, thanks! active, inactive

molecule	group
CC[C@H](C)[C@H]1O[C@]2(C=C[C@@H]1C)C[C@@H]1C[C@@H](C/C=C(\C)[C@@H](O[C@H]3C[C@H](OC)[C@@H](O[C@H]4C[C@H](OC)[C@@H](NC)[C@H](C)O4)[C@H](C)O3)[C@@H](C)/C=C/C=C3\CO[C@@H]4[C@H](O)C(C)=C[C@@H](C(=O)O1)[C@]34O)O2	active

Identify the outcome logged in this assay for the molecule shown: CCOP(=S)(OCC)SCCSCC inactive

Identify the outcome logged in this assay for the molecule shown: Nc1c(Cl)cc([N+](=O)[O-])cc1Cl inactive
